Recorded measurements of growth at 10 µM, one per entry
Tested on: MDA-MB-435
Assay: Growth inhibition of human MDA-MB-435 cells assessed as cell growth at 10^-5 M after 48 hrs by sulforhodamine B assay relative to control
Format: functional
Settings: MDA-MB-435, 48 h, read-out: Activity
Report as a plain number; the unit % is understood.

Cc1ccc(-c2csc(=N)n2CC(=O)N2CCN(C)CC2)cc1 = 83.4
N=c1scc(-c2ccccc2)n1CC(=O)N1CCN(c2ccccc2)CC1 = 96.5
N=c1scc(-c2ccc(Cl)cc2)n1CC(=O)N1CCOCC1 = 84.6
CC(=O)N1CCN(C(=O)Cn2c(-c3ccc(Cl)cc3)csc2=N)CC1 = 85.3
CC(=O)N1CCN(C(=O)Cn2c(-c3ccc(C)cc3)csc2=N)CC1 = 80.6

Measured growth at 10 µM of Cc1ccc(-c2csc(=N)n2CC(=O)N2CCOCC2)cc1 : 87.2

Lookup result for CN1CCN(C(=O)Cn2c(-c3ccccc3)csc2=N)CC1 ; measured growth at 10 µM: 104
